# Tested on: Hela nucleus extract containing a mixture of HDAC isoforms
# METHOD DESCRIPTION: HDAC enzyme inhibitory screening against Hela nucleus extract
# Format: biochemical
# PARTICULARS: at concentration of 1.0 µM, mean of three experiments
OBSERVABLE: HDACs percentage inhibitory rate (%)

Example entries and their recorded answers appear below.
COc1ccc(Nc2nc(N3CCN(c4ccc(C(=O)NO)cc4)CC3)ncc2Cl)cc1OC    58.37
CCOc1ccc(Nc2nc(N3CCN(c4ccc(C(=O)NO)cc4)CC3)ncc2Cl)cc1    49.32
COc1cc(Nc2nc(N3CCN(c4ccc(C(=O)NO)cc4)CC3)ncc2Cl)cc(OC)c1    59.74
COc1cc(Nc2nc(N3CCN(c4ncc(C(=O)NO)cn4)CC3)ncc2Cl)cc(OC)c1    72.52
O=C(NO)c1ccc(N2CCN(c3ncc(Cl)c(Nc4ccc(Cl)cc4)n3)CC2)cc1    52.44

A. O=C(NO)c1ccc(N2CCN(c3ncc(Cl)c(Nc4ccc(Br)cc4)n3)CC2)cc1
B. O=C(NO)c1ccc(N2CCN(c3ncc(Cl)c(Nc4cccc(Cl)c4)n3)CC2)cc1
Quick one: lower HDACs percentage inhibitory rate, A or B ? // respond with label for picked entry
B
(B: 32.74%, A: 59.82%)

* * *

# Lookup of reported pIC50 keyed by entry
# Test system: MDA-MB-468
# METHOD DESCRIPTION: In vitro antiproliferative assay (CCK-8), MDA-MB-468
# Format: cell-based
# PARTICULARS: Homo sapiens, CCK-8, 72 h
Reminder that pIC50 is minus the log10 of a molar concentration.

Could you tell me which pIC50 is on file for O=C(CCCCCCC(=O)Nc1ccccc1)NO [SAHA, Vorinostat, reference compound] ?
5.31

Could you tell me which pIC50 is on file for `COc1cc(Nc2nc(N3CCN(c4ncc(C(=O)NO)cn4)CC3)ncc2Cl)cc(OC)c1` ?
5.65

* * *

# Tested on: Hela nucleus extract containing a mixture of HDAC isoforms
# METHOD DESCRIPTION: HDAC enzyme inhibitory screening against Hela nucleus extract
# Assay type: biochemical
# PARTICULARS: at concentration of 1.0 µM, mean of three experiments
OBSERVABLE: HDACs percentage inhibitory rate (%)

COc1cccc(Nc2nc(N3CCN(c4ccc(C(=O)NO)cc4)CC3)ncc2Cl)c1    55.28
O=C(NO)c1ccc(N2CCN(c3ncc(Cl)c(Nc4ccc(-c5ccccc5)cc4)n3)CC2)cc1    46.80
N#Cc1ccc(Nc2nc(N3CCN(c4ccc(C(=O)NO)cc4)CC3)ncc2Cl)cc1    48.33
CCc1ccc(Nc2nc(N3CCN(c4ccc(C(=O)NO)cc4)CC3)ncc2Cl)cc1    50.54
O=C(NO)c1ccc(N2CCN(c3ncc(Cl)c(Nc4cccc(I)c4)n3)CC2)cc1    46.50
COc1cc(Nc2nc(N3CCN(c4ccc(C(=O)NO)cc4)CC3)ncc2Cl)cc(OC)c1OC    58.15
Cc1ccc(Nc2nc(N3CCN(c4ccc(C(=O)NO)cc4)CC3)ncc2Cl)cc1    47.98
O=C(NO)c1cnc(N2CCN(c3ncc(Cl)c(Nc4ccc(-c5ccccc5)cc4)n3)CC2)nc1    40.93

* * *

# System: Hela nucleus extract containing a mixture of HDAC isoforms
# METHOD DESCRIPTION: HDAC enzyme inhibitory screening against Hela nucleus extract
# Type: biochemical
# PARTICULARS: at concentration of 1.0 µM, mean of three experiments
OBSERVABLE: HDACs percentage inhibitory rate (%)

CC(C)S(=O)(=O)c1ccccc1Nc1nc(N2CCN(c3ccc(C(=O)NO)cc3)CC2)ncc1Cl    44.91
O=C(NO)c1ccc(N2CCN(c3ncc(Cl)c(Nc4ccc(F)cc4)n3)CC2)cc1    53.89
O=C(NO)c1ccc(N2CCN(c3ncc(Cl)c(Nc4cccc(Br)c4)n3)CC2)cc1    51.50
O=C(NO)c1ccc(N2CCN(c3ncc(Cl)c(Nc4ccc(F)c(Cl)c4)n3)CC2)cc1    52.92
O=C(NO)c1ccc(N2CCN(c3ncc(Cl)c(Nc4ccccc4)n3)CC2)cc1    50.54
COc1ccc(Nc2nc(N3CCN(c4ncc(C(=O)NO)cn4)CC3)ncc2Cl)cc1OC    58.95

* * *

# MEASURED ON: HDAC2 (Homo sapiens)
# Sequence (Q92769 whole entry): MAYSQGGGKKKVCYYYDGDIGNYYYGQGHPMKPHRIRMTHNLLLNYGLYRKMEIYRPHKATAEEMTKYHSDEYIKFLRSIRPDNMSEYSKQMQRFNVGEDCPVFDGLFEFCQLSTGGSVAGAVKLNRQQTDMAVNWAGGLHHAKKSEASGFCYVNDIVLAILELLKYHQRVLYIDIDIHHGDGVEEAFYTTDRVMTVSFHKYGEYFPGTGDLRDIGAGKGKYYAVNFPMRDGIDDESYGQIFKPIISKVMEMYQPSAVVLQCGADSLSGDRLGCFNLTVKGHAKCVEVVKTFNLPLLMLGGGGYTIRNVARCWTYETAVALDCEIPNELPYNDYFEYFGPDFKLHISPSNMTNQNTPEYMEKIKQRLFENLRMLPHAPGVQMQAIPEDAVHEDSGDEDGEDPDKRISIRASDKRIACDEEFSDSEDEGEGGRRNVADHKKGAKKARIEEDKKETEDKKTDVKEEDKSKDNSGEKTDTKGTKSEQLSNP
OBSERVABLE: IC50 (nM)
Please respond with the number in nM and leave the unit unwritten.

Under HDAC2 (Homo sapiens): IC50 value of COc1cc(Nc2nc(N3CCN(c4ncc(C(=O)NO)cn4)CC3)ncc2Cl)cc(OC)c1 [Compound L20] ?
2550
